assay: qHTS of pediatric cancer cell lines to identify multiple opportunities for drug repurposing: Primary screen for SK-N-SH cells (AID 1347098); details: SK-N-SH viability, CellTiter-Glo luminescence, 48 h; series mostly up to 57 µM; further: nearly all actives have a fitted effect of over 65% in size
Inconclusive results are not listed. Activity calls are given as the source filed them. The call rests on the fitted dose curve; in most records, active means well fitted cell-killing curve with a large enough effect; inconclusive means small, poorly fitted or top-dose-only effect; inactive means no such curve, though single readings can be large or run the other way.
Select the correct class. Options are active, inactive and nothing else.

Answered examples (4):
Please state the recorded outcome for this compound: `NC1(C(=O)N[C@@H](CCO)c2ccc(Cl)cc2)CCN(c2ncnc3[nH]ccc23)CC1`
active

Please state the recorded outcome for this compound: `C[C@H](CCC(=O)O)[C@H]1CC[C@H]2[C@H]3[C@@H](CC[C@]12C)[C@@]1(C)CC[C@@H](O)C[C@H]1C[C@@H]3O`
inactive

Please state the recorded outcome for this compound: `C[C@]12CCC3=C4CCC(=O)C=C4CC[C@@H]3[C@H]1CC[C@@]2(O)CC#N`
inactive

Please state the recorded outcome for this compound: `CN1CCC(COc2cnc(-c3cccc(Cn4nc(-c5cccc(C#N)c5)ccc4=O)c3)nc2)CC1`
active

***
Please state the recorded outcome for this compound: `c1ccc(-c2oc3ncnc(NC[C@@H]4CCCO4)c3c2-c2ccccc2)cc1`
active

Please state the recorded outcome for this compound: `C[C@@]1(C(=O)Nc2ccc(F)nc2)CCCN1c1nc(Nc2cc(C3CC3)[nH]n2)c2cccn2n1`
active

Please state the recorded outcome for this compound: `O=C(C=Cc1ccc(O)cc1)c1ccc(O)cc1O`
active

Please state the recorded outcome for this compound: `C=CC(=O)Nc1cccc(Sc2nc(Nc3ccc(N4CCN(C)CC4)cc3)ncc2Cl)c1`
active

Please state the recorded outcome for this compound: CC1(C)CC(=O)c2c(C(F)(F)F)nn(-c3ccc(C(N)=O)c(NC4CCC(O)CC4)c3)c2C1 (centres undefined)
active

----------
assay: Quantitative High-Throughput drug screen in 47 multiple myeloma cell lines against the NCATS MIPE library collection: H1112_PLB cell viability assay (AID 1918967; further: nearly all actives have a fitted effect of over 30% in size); conditions: H1112 myeloma cells viability, ATP luminescence, 48 h; series mostly up to 45.8 µM
Inconclusive results are not listed. Active and inactive are the calls of the source. The call rests on the fitted dose curve; in most records, active means well fitted cell-killing curve with a large enough effect; inconclusive means small, poorly fitted or top-dose-only effect, or effect the other way; inactive means no such curve, though single readings can be large or run the other way.
Select the correct class. Options are active, inactive and nothing else.

Answered examples (5):
Please state the recorded outcome for this molecule: `Cc1cn([C@@H]2C[C@@H](O)[C@H](CO)O2)c(=O)[nH]c1=O`
inactive

Please state the recorded outcome for this molecule: `CC(=O)N1CCN(c2ccc(OCc3nn(C)c(C)c3-c3cccc4c(CCCOc5cc(C)c(Cl)c(C)c5)c(C(=O)O)n(Cc5cccnc5)c34)cc2)CC1`
active

Please state the recorded outcome for this molecule: `CN1C(=O)C[C@H](C(=O)N[C@@H](Cc2cnc[nH]2)C(=O)N2CCC[C@@H]2C(N)=O)NC1=O`
inactive

Please state the recorded outcome for this molecule: CCOC(=O)[C@H](CCc1ccccc1)N[C@@H](C)C(=O)N1CCCC1C(=O)O (some centres not stated)
inactive

Please state the recorded outcome for this molecule: `COc1nccc(-c2c(-c3ccc(F)cc3)ncn2C2CCNCC2)n1`
active

***
Please state the recorded outcome for this molecule: `CCCCC[C@H](O)C=C[C@H]1[C@H](O)CC(=O)[C@H]1CCCCCCC(=O)O`
inactive

Please state the recorded outcome for this molecule: `Cc1nc(NC(=O)N2CCC[C@@H]2C(N)=O)sc1-c1csc(C(C)(C)C)n1`
active

Please state the recorded outcome for this molecule: `c1ccc(CNc2nc(N3CCOc4ccccc43)nc3c2CCCC3)cc1`
inactive

Please state the recorded outcome for this molecule: `CNC(=O)[C@H](Cc1ccccc1)NC(=O)[C@H](CC(C)C)[C@H](CSc1cccs1)C(=O)NO`
active

Please state the recorded outcome for this molecule: `O=C(O)CCNc1cc(N2CCc3ccccc3CC2)nc(-c2ccccn2)n1`
inactive

Please state the recorded outcome for this molecule: `CN1CCN(c2cccc(Nc3nc4c(-c5ccc(S(C)(=O)=O)cc5)cccn4n3)c2)CC1`
active

Please state the recorded outcome for this molecule: `COc1c(C)c2c(c(O)c1CC=C(C)CCC(=O)OCCN1CCOCC1)C(=O)OC2`
active

----------
test: qHTS of pediatric cancer cell lines to identify multiple opportunities for drug repurposing: Confirmatory screen for SK-N-MC cells (AID 1347111); conditions: SK-N-MC cell viability; series mostly up to 45.9 µM;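 further: cells exposed to compound for 48 h before the readout; nearly all actives have a fitted effect of over 70% in size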; further: potency means the concentration at half of the fitted maximal effect
Results filed as inconclusive are left out. Active and inactive are the calls of the source. The call rests on the fitted dose curve; in most records, active means well fitted cell-killing curve with a large enough effect; inconclusive means small, poorly fitted or top-dose-only effect; inactive means no such curve, though single readings can be large or run the other way.
metric: Potency

Example cases with answers are listed next.
# Potency (compound: CCC(C)SSc1ncc[nH]1 (centres undefined) ) is 8.27 µM (active)

# Potency (compound: C[C@@H]1O[C@@H](O[C@H]2CC[C@@]3(C)[C@H](CC[C@@H]4[C@H]3C[C@@H](O)[C@]3(C)[C@@H](C5=CC(=O)OC5)CC[C@]43O)C2)C[C@H](O)[C@@H]1O[C@H]1C[C@H](O)[C@H](O[C@H]2C[C@H](O)[C@@H](O)[C@@H](C)O2)[C@H](C)O1 (stereo in doubt) ) is 0.269 µM (active)

# Potency (compound: CCCC1OC2C[C@@H]3[C@H]4CCC5=CC(=O)C=C[C@]5(C)[C@H]4C(O)C[C@]3(C)[C@]2(C(=O)CO)O1 (some centres undefined) ) is 26.1 µM (active)

# Potency (compound: `Nc1ccn([C@@H]2O[C@H](CO)[C@@H](O)[C@H]2O)c(=O)n1` ) is 2.61 µM (active)

# Potency (compound: CN(C(Cc1ccc(OS(=O)(=O)c2cccc3cnccc23)cc1)C(=O)N1CCN(c2ccccc2)CC1)S(=O)(=O)c1cccc2cnccc12 (centres undefined) ) is 2.93 µM (active)

***
# Potency (compound: `CCNC(=O)c1noc(-c2cc(C(C)C)c(O)cc2O)c1-c1ccc(CN2CCOCC2)cc1` ) is 0.0827 µM (active)

# Potency (compound: CC1=C(CC(=O)O)c2cc(F)ccc2C1=Cc1ccc(S(C)=O)cc1 (centres undefined) ) is inactive

# Potency (compound: `NC(N)=Nc1nc(CSCCC(N)=NS(N)(=O)=O)cs1` ) is inactive

# Potency (compound: `O=C1Nc2ccc(I)cc2C1=Cc1cc(Br)c(O)c(Br)c1` ) is inactive

----------
test: qHTS of pediatric cancer cell lines to identify multiple opportunities for drug repurposing: Primary screen for TC32 cells (AID 1347089); conditions: TC32 Ewing sarcoma viability, CellTiter-Glo luminescence, 48 h; series mostly up to 45.8 µM; further: nearly all actives have a fitted effect of over 60% in size; further: potency means the concentration at half of the fitted maximal effect
Inconclusive results are not listed. Active and inactive are the calls of the source. The call rests on the fitted dose curve; in most records, active means well fitted cell-killing curve with a large enough effect; inconclusive means small, poorly fitted or top-dose-only effect; inactive means flat fitted curve, though single readings scatter.
metric: Potency

# Potency (compound: `O=C(Nc1ncc(SCCN2CCCC2)s1)[C@]1(c2ccc(S(=O)(=O)C3CC3)cc2)C[C@@H]1C1CCCCC1` ) is inactive

# Potency (compound: `Cc1ccc(NC(=O)c2ccc(CN3CCN(C)CC3)cc2)cc1Nc1nc(-c2cccnc2)cs1` ) is inactive

# Potency (compound: `O=[N+]([O-])c1ccc(Nc2ccccc2-c2ccccc2)c2nonc12` ) is inactive

# Potency (compound: COc1ccnc(CS(=O)c2nc3ccc(OC(F)F)cc3[nH]2)c1OC (centres undefined) ) is inactive

# Potency (compound: `CN(CC=CC#CC(C)(C)C)Cc1cccc2ccccc12` ) is inactive

# Potency (compound: `O=C(Nc1cccc2c(=O)cc(-c3nn[nH]n3)oc12)c1ccc(OCCCCc2ccccc2)cc1` ) is inactive

# Potency (compound: `CN[C@@H]1CN(c2ccc3c(=O)c(C(=O)O)cn(-c4nccs4)c3n2)C[C@@H]1OC` ) is 12.8 µM (active)

# Potency (compound: `FC(F)(F)c1ccc(C=Cc2nc(COc3ccc(CCCCn4ccnn4)cc3)co2)cc1` ) is 6.58 µM (active)

Proceeding to the next compound to report its Potency.
# Potency (compound: CC1CNc2c(cccc2S(=O)(=O)N[C@@H](CCCN=C(N)N)C(=O)N2CC[C@@H](C)C[C@@H]2C(=O)O)C1 (some centres undefined) ) is inactive

----------
Test: qHTS drug screen for cell cycle checkpoint inhibitors in PARPi-resistant BRCA-mutant ovarian cancer cell lines. (AID 1963452)
Details: PEO1/OlaR viability, CellTiter-Glo luminescence, 96 h; measured here: PEO4 Z-AUC; stronger effect = lower value
Text: Women's Malignancies Branch, Center for Cancer Research (CCR), National Cancer Institute (NCI), National Institutes of Health (NIH), Bethesda, MD Poly (ADP-ribose) polymerase inhibitors (PARPis) have changed the treatment paradigm in breast cancer gene (BRCA) - mutant high-grade serous ovarian carcinoma (HGSC). […] 6; Detection; Luminescence, PHERAstar (BMG Labtech) plate reader. […] 6. Luminescence readings were taken using PHERAstar (BMG Labtech). […]
metric: Z-AUC
Please reply with the number alone, leaving off any unit.

# Z-AUC (compound: `Cc1cc(NC(=O)Nc2ccc(N(C)C)cc2)c2cc(F)cc(F)c2n1` ) is -0.472

# Z-AUC (compound: `CC(C)C[C@@H](N)[C@H](O)C(=O)N[C@H](C(=O)N[C@H](C(=O)N[C@@H](CC(=O)O)C(=O)O)C(C)C)C(C)C` ) is -0.277

# Z-AUC (compound: CC1=C(C(=O)Nc2cc3cn[nH]c3cc2F)C(c2ccc(C(F)(F)F)cc2)CC(=O)N1 (stereo not drawn) ) is -0.273

# Z-AUC (compound: `O=C(O)CCC=CCC[C@@H]1[C@H](N2CCCCC2)[C@@H](O)C[C@@H]1OCc1ccc(-c2ccccc2)cc1` ) is 0.219

# Z-AUC (compound: `O=C(NC[C@H](O)CO)c1ccncc1Nc1ccc(I)cc1F` ) is -0.367

# Z-AUC (compound: `N#Cc1ccc(Oc2ccc3c(c2)COB3O)cc1` ) is 0.594
